TARGET: Histone deacetylase 9 (Homo sapiens)
Sequence (Q9UKV0 whole entry): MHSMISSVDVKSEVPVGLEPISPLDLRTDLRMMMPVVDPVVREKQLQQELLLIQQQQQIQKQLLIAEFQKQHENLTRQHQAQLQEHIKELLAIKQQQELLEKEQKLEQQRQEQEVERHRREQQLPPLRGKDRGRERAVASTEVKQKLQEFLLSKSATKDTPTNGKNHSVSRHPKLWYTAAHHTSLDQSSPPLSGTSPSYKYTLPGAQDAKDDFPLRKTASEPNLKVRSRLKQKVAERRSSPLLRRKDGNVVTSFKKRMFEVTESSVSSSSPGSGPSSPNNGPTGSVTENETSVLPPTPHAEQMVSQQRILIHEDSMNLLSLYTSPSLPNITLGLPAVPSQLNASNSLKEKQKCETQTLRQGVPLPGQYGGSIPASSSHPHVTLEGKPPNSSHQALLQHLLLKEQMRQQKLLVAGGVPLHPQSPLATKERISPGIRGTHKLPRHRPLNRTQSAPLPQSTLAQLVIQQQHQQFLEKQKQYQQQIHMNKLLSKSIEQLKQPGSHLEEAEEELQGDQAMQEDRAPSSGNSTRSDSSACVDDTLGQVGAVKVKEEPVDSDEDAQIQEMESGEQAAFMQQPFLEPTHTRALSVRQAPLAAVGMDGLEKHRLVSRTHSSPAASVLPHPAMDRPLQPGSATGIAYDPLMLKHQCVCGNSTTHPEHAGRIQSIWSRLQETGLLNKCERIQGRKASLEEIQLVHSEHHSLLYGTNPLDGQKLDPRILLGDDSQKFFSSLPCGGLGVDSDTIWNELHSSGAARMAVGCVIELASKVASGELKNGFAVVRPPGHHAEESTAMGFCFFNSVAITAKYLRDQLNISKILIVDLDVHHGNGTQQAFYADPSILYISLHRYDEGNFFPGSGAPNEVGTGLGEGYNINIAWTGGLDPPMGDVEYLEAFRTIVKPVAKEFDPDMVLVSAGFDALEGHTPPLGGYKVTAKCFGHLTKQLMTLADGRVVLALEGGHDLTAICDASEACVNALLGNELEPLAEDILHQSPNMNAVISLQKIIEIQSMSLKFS
EXPERIMENT NOTES: Inhibition of human recombinant HDAC9
PROPERTY NAME: IC50

>>> value_reported("O=C(CCCCCCC(=O)C(F)(F)F)Nc1ccccc1")
"5.9 µM"

====

TARGET: Histone deacetylase 7 (Homo sapiens)
Sequence (Q8WUI4 whole entry): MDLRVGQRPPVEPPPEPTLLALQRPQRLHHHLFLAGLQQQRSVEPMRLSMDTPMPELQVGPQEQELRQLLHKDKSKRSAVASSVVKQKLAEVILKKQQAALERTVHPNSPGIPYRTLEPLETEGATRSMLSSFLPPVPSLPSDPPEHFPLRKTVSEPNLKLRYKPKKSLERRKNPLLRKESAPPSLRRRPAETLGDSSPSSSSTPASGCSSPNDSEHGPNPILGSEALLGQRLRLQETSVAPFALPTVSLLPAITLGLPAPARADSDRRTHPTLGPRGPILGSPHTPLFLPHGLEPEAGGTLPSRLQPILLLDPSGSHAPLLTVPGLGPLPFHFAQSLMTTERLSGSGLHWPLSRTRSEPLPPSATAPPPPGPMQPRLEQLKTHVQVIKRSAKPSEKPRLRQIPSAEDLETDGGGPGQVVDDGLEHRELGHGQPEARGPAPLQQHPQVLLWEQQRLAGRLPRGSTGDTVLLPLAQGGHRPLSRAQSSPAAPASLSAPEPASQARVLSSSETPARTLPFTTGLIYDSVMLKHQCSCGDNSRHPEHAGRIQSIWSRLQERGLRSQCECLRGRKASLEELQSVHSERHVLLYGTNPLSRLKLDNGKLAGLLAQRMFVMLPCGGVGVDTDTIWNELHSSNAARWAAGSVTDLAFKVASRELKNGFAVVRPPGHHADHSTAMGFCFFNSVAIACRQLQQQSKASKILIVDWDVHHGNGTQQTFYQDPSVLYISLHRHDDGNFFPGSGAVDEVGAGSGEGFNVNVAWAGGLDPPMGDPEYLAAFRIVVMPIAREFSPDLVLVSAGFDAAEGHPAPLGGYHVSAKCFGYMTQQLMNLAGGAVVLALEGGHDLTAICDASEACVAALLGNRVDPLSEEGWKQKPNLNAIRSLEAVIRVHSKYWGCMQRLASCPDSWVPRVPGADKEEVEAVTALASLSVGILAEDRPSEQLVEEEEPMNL
EXPERIMENT NOTES: Inhibition of human recombinant HDAC7 using ArgHisLysLys(Ac) as substrate by fluorescence based analysis
pIC50: −log10 of the molar value.
PROPERTY NAME: pIC50

>>> value_reported("O=C(CCCCC[C@H]1CN(O)C1=O)Nc1ccccc1")
"< 3.00"
>>> value_reported("Nc1ccccc1N1CC(CCCCCC(=O)Nc2ccccc2)C1=O (centres undefined)")
"< 3.00"
>>> value_reported("O=C(CCCCCC1CNC1=O)Nc1ccccc1 (centres undefined)")
"< 3.00"
>>> value_reported("O=C(CCCCC[C@@H]1CN(O)C1=O)Nc1ccccc1")
"< 3.00"

====

System: HRT-18 cell line
EXPERIMENT NOTES: Antiproliferative activity against human HRT-18 cell line assessed as cell growth inhibition measured after 72 hrs by MTT assay
Format: functional, cell-based
CONDITION PARAMETERS: HRT-18, 72 h
pIC50: −log10 of the molar value.
PROPERTY NAME: pIC50

>>> value_reported("NC(=S)NC(=O)CCCCC(=O)Nc1ccccc1")
4.52
>>> value_reported("NC(=S)NC(=O)CCCCCC(=O)Nc1ccccc1")
4.62
